Data origin, for the record: ChEMBL document CHEMBL1153719

Listing of entries alongside the reported Ratio IC50.
Tested on: Vero
Assay: Selectivity index, ratio of IC50 for african green monkey Vero cells to IC50 for human Jurkat cells
Assay type: functional
Write the value as a bare number.

{"molecule": "CC(C)c1ccc2c(c1)CC[C@H]1[C@](C)(C=O)CCC[C@]21C [DEHYDROABIETINAL]", "Ratio IC50": 1.9}
{"molecule": "CC(C)c1ccc2c(c1)[C@H](O)C[C@H]1[C@](C)(CO)CCC[C@]21C", "Ratio IC50": 2.5}
{"molecule": "COC(=O)[C@]1(C)CCC[C@]2(C)c3ccc(C(C)C)cc3CC[C@@H]12 [METHYL DEHYDROABIETATE]", "Ratio IC50": 1.7}
{"molecule": "CC(C)c1ccc2c(c1)CC[C@H]1[C@](C)(CO)CCC[C@]21C", "Ratio IC50": 3.9}
{"molecule": "CC(C)c1ccc2c(c1)CC[C@H]1[C@](C)(C(=O)O)CCC[C@]21C [DEHYDROABIETIC ACID]", "Ratio IC50": 3.2}
{"molecule": "CC(C)c1ccc2c(c1)[C@H](O)C[C@H]1[C@](C)(C=O)CCC[C@]21C", "Ratio IC50": 3}

Bench note, Vero: CC(=O)OC[C@]1(C)CCC[C@]2(C)c3ccc(C(C)C)cc3CC[C@@H]12 [DEHYDROABIETINOL ACETATE] , Ratio IC50 reads 4.3

Bench note, Vero: CC(C)c1ccc2c(c1)C(=O)C[C@H]1[C@](C)(CO)CCC[C@]21C , Ratio IC50 reads 1.6

---

System: Human alphaherpesvirus 1
Assay: Antiviral activity against Human herpesvirus 1 infected in human HeLa cells assessed as maximal nontoxic dose caused highest viral reduction factor after 36 hrs by end point titration method
Assay type: functional, organism-based
The source made the active and inactive calls. No cut-off for these calls is given here.
Hello, when you answer, please use one of the following outcomes: y = active, n = inactive

{"compound": "CC(C)c1ccc2c(c1)[C@H](O)C[C@H]1[C@](C)(CO)CCC[C@]21C", "experimental.target": "Human alphaherpesvirus 1", "category.label": "n"}

Task: Write down the call the test reported for this compound. Item: CC(C)c1ccc2c(c1)CC[C@H]1[C@](C)(COC(=O)c3ccccc3)CCC[C@]21C [DEHYDROABIETINOLBENZOATE]
Result: n

Task: Write down the call the test reported for this compound. Item: CC(C)C1=CC2=CC[C@@H]3[C@](C)(CCC[C@@]3(C)C(=O)O)[C@H]2CC1
Result: n

Task: Write down the call the test reported for this compound. Item: CC(C)c1ccc2c(c1)CC[C@H]1[C@](C)(C=O)CCC[C@]21C [DEHYDROABIETINAL]
Result: n

Task: Write down the call the test reported for this compound. Item: CC(C)c1ccc2c(c1)CC[C@H]1[C@](C)(C(=O)O)CCC[C@]21C [DEHYDROABIETIC ACID]
Result: n

Task: Write down the call the test reported for this compound. Item: COC(=O)[C@]1(C)CCC[C@]2(C)c3ccc(C(C)C)cc3CC[C@@H]12 [METHYL DEHYDROABIETATE]
Result: n

Task: Write down the call the test reported for this compound. Item: CC(=O)OC[C@]1(C)CCC[C@]2(C)c3ccc(C(C)C)cc3CC[C@@H]12 [DEHYDROABIETINOL ACETATE]
Result: n

Task: Write down the call the test reported for this compound. Item: COC(=O)[C@]1(C)CCC[C@@]2(C)[C@H]1CC=C1C=C(C(C)C)CC[C@@H]12 [METHYL ABIETATE]
Result: y

Task: Write down the call the test reported for this compound. Item: CC(C)c1ccc2c(c1)C(=O)C[C@H]1[C@](C)(CO)CCC[C@]21C
Result: n

Task: Write down the call the test reported for this compound. Item: CC(C)c1ccc2c(c1)CC[C@H]1[C@](C)(CO)CCC[C@]21C [POMIFERIN A]
Result: n

Task: Write down the call the test reported for this compound. Item: CC(C)c1ccc2c(c1)[C@H](O)C[C@H]1[C@](C)(C=O)CCC[C@]21C
Result: n
